test system: Cryptococcus neoformans; assay: Antifungal activity against Cryptococcus neoformans ATCC 36556 by standard microdilution method; format: functional
Here, each record is paired with measured MIC data.

Worked examples, 8 compounds total:
| COMPOUND | TESTED TARGET | MIC |
| --- | --- | --- |
| C[N+](C)(C)CCOP(=O)([O-])OCCCCCCCCCCCCCCOP(=O)([O-])OCC[N+](C)(C)C | Cryptococcus neoformans | 250 µg/mL |
| O=P(O)(O)OCCCCCCCCCCCCCCCCCCCCCCOP(=O)(O)O | Cryptococcus neoformans | 62.5 µg/mL |
| O=P(O)(O)OCCCCCCCCCCCCCCCCOP(=O)(O)O | Cryptococcus neoformans | 62.5 µg/mL |
| O=P(OCCCCCCCCCCCCCCCCOP(=O)(Oc1ccccc1)Oc1ccccc1)(Oc1ccccc1)Oc1ccccc1 | Cryptococcus neoformans | 62.5 µg/mL |
| CCCCCCCCCCCCCCCCOP(=O)(O)O [HEXADECYL DIHYDROGEN PHOSPHATE] | Cryptococcus neoformans | 62.5 µg/mL |
| C[N+](C)(C)CCOP(=O)([O-])OCCCCCCCCCCCCCCCCOP(=O)([O-])OCC[N+](C)(C)C | Cryptococcus neoformans | 125 µg/mL |
| C[N+](C)(C)CCOP(=O)(O)OCCCCCCCCCCCCCCCCCl.[Cl-] | Cryptococcus neoformans | 0.5 µg/mL |
| C[N+](C)(C)CCOP(=O)([O-])OCCCCCCCCCCCCCCCCCCOP(=O)([O-])OCC[N+](C)(C)C | Cryptococcus neoformans | 500 µg/mL |

Challenge: Item C[N+](C)(C)CCOP(=O)([O-])OCCCCCCCCCCCCCCCCCCCCCCOP(=O)([O-])OCC[N+](C)(C)C.Cl : provide MIC
Response given: 0.04 µg/mL

Challenge: Item OCCCCCCCCCCCCCCCCCCCCCCO : provide MIC
Response given: > 500 µg/mL

Challenge: Item C[N+](C)(C)CCOP(=O)([O-])OCCCCCCCCCCCCCCCCCCCCCCOP(=O)([O-])OCC[N+](C)(C)C : provide MIC
Response given: 0.04 µg/mL

Challenge: Item O=P(O)(OCCBr)OCCCCCCCCCCCCCCCCOP(=O)(O)OCCBr : provide MIC
Response given: 62.5 µg/mL

Challenge: Item C[N+](C)(C)CCOP(=O)([O-])OCCCCCCCCCCCCCCCCCCCCCCCCOP(=O)([O-])OCC[N+](C)(C)C : provide MIC
Response given: 3.9 µg/mL
